- methodSummary: soluble on expression in E. coli; label from the status in PepcDB or PDB records
resultType: soluble on expression in E. coli

Please report soluble on expression in E. coli for the following sequence: MERLEEARKRLEEARRVAVLTGAGISKPSGIPTFRDAEGLWKNFNPLDYATPEAYARDPEKVWAWYAWRIQKVREAKPNPAHYALVELERRILSRGGSFLLVTQNVDGLHALAGSQNLVELHGNLLRARCEACGKRFPLPEAFAPPPFCPACGHRARPDVVWFGEFLPEGAWERAERAFAEADFALVVGTSAEVEPAASLGRIAFASGAYLVEVNPEPTPLTPLAHLSLRTGAVEGMALLLPPSPEDQAEGHLS soluble

Please report soluble on expression in E. coli for the following sequence: MLTVKQIEAAKPKEKPYRLLDGNGLYLYVPVSGKKVWQLRYKIDGKEKILTVGKYPLMTLQEARDKAWTARKDISVGIDPVKAKKASSNNNSFSAIYKEWYEHKKQVWSVGYATELAKMFDDDILPIIGGLEIQDIEPMQLLEVIRRFEDRGAMERANKARRRCGEVFRYAIVTGRAKYNPAPDLADAMKGYRKKNFPFLPADQIPAFNKALATFSGSIVSLIATKVLRYTALRTKELRSMLWKNVDFENRIITIDASVMKGRKIHVVPMSDQVVELLTTLSSITKPVSEFVFAGRNDKKKPICENAVLLVIKQIGYEGLESGHGFRHEFSTIMNEHEWPADAIEVQLAHANGGSVRGIYNHAQYLDKRREMMQWWADWLDEKVE soluble

Please report soluble on expression in E. coli for the following sequence: MSLYIDGTFSYSLYRKICTDRSAVNKASNTQESSVAKPSIIKTSENPLQTIEVEVYDEYGEKLVKSIACERPLTVLLNWKEIVTLMTLGSRPEALVLGYLKNQSFISDPEALDSIIIDWETHSAAVVTRENIDHLEPALKKKTVTSGCGQGTMYGNVMKQLEHYQVPQQPIKQSQIYAALEALTHYNDTYKKAGAVHGCAICQEDRVLSFVEDVGRHNAVDTLAGEMWLNGMRGDDKIFYTTGRLTSEMVIKVAQMGIPVLLSRSGVTQMGLELAQRFGITTIARASGRRFHVYSGADKMVFDVKGHSEEAEGHHHHHH soluble
